Tested on: OVCAR-5 ovarian
measurement_protocol: NCI-60 one-dose screen, 48 h (100 = growth as untreated, 0 = no growth, -100 = all killed)
reported_conditions: 10 µM unless noted
Procedure: Growth inhibition of the OVCAR-5 human tumor cell line is measured as a screen for anti-cancer activity. Cells are grown in 96 well plates and exposed to the test compound for 48 hours. Compounds are tested at a single concentration, which is 10^-5 M for most compounds. The reported endpoint is percent growth (GI% or GIPRCNT), where numbers from 0 - 100% represent growth inhibition, and numbers from -100% - 0 represent cell death. For example, a value of 40 represents 60% growth inhibition. […]
This is part of a sample that, as a whole, favours compounds with a hit. Of some 83,000 tested, about 20% had one in any assay. Calls of active or inactive are those of the source. The calls were made as follows: active = growth percent below 10; inactive = the rest.
outcome_measure: growth

compound	growth
O=C(CC(=O)c1cccc(Cl)c1)c1cccc(Cl)c1	46.8% (inactive)
COc1ccc2[nH]cc(C3(c4c[nH]c5ccc(OC)cc45)C(=O)Nc4ccc(F)cc43)c2c1	94.1% (inactive)
COc1cc(/C=C/c2cc(/C=C/c3ccc(O)c(OC)c3)n(C(=O)c3ccccc3Br)n2)ccc1O	84.5% (inactive)
COc1ccccc1/C=C/C(=O)CCC(=O)O	104% (inactive)
Clc1cccc(CNc2c3ccccc3nc3ccccc23)c1	32.4% (inactive)

# return growth for each item in the list
1. NS(=O)(=O)c1ccc(CCn2c(SCC(=O)N/N=C/c3ccccc3O)nc3ccccc3c2=O)cc1
2. NNc1ccc(S(N)(=O)=O)cc1
3. CC(C)c1ccc2c(c1)CCC1C2CCCC1(C)NCc1ccccc1 (stereo unspecified)

Response line:
1. 69.2% (inactive)
2. 102% (inactive)
3. 53.5% (inactive)

###

System: SK-OV-3 ovarian
measurement_protocol: NCI-60 one-dose screen, 48 h (100 = growth as untreated, 0 = no growth, -100 = all killed)
reported_conditions: 10 µM unless noted
Compounds without any hit were thinned out: in the full panel of roughly 83,000, 20% have a hit.
outcome_measure: growth (%)
Answers are plain numbers, in %.

Known growth results, listed for orientation:
compound	unit_spec	growth
CN1C2CCC1/C(=C\c1ccc(F)cc1)C(=O)/C2=C/c1ccc(F)cc1	%	79.8
CCCCCCCCCCCCCC	%	104
COc1cc(C2CC(=O)Nc3c2cnn3C)cc(OC)c1OC (centres undefined)	%	95.1

Value sought for every listed compound: growth.
1. COc1ccc2nc3ccccc3c(NCc3ccc(C)cc3)c2c1
2. c1ccc2c(N=NSc3ncnc4nc[nH]c34)c3ccccc3nc2c1
3. CC(=O)NC1C(O[C@H]2C[C@H]3[C@@H]4CC=C5C[C@@H](O)CC[C@]5(C)[C@H]4CC[C@]3(C)[C@H]2[C@H](C)C(=O)CCC(C)C)OCC(O)C1O (some centres undefined)
4. C(=Nc1ccc(-c2ccc(N=Cc3ccccc3)cc2)cc1)c1ccccc1
5. CCN1C(=O)N(CC)C2C1NC(=O)N2/N=C/C=C/c1ccccc1 (centres undefined)

Response line:
52.7
-14.2
37.9
103
36.7

Looking up `CCCCOc1nc2ccc(C)cc2cc1/C=C/C(=O)/C=C(O)/C=C/c1cc2cc(C)ccc2nc1OCCCC` , I found its growth recorded as 89.9

###

Tested on: MDA-MB-435 melanoma
measurement_protocol: NCI-60 one-dose screen, 48 h
reported_conditions: 10 µM unless noted
Compounds without any hit were thinned out: in the full panel of roughly 83,000, 20% have a hit. The source made the active and inactive calls. How the source made its calls: active means growth percent below 10; inactive means the rest.
Respond only with the outcome that fits, drawn from 1.0 (active), 0.0 (inactive)

compound	group_label
CN1C2CCC1/C(=C\c1ccc(F)cc1)C(=O)/C2=C/c1ccc(F)cc1	0.0
COc1ccc(N=C2CSc3nnc(-c4cc(F)c(Cl)cc4Cl)n3N2)cc1	1.0

Prompt line: # fetch the recorded call for `CCCCCCCC/C=C\CCCCCCCC(=O)OCCCCCC` here
Response line: 0.0

Prompt line: Query: recorded result category for `CC[C@H](C)[C@H](N)C(=O)O` in this test
Response line: 0.0

Prompt line: So what was the verdict on COc1ccc(C2c3cccn3-c3ccccc3N2C(C)=O)cc1 (stereo unspecified) in this test?
Response line: 0.0

Prompt line: Hi team, can someone confirm the assay call for `COc1ccc(Cl)cc1Nc1nc(C(F)(F)F)ccc1C(=O)NN` ?
Response line: 0.0

Prompt line: Just curious, what result did `Cc1ccc(C(=O)CC(=O)C(F)(F)C(F)(F)C(F)(F)F)s1` get here?
Response line: 0.0

Prompt line: Recorded call for `CC(C)CCSc1nc(Nc2ccccc2)c(C#N)c(-c2ccc(F)cc2)n1` ?
Response line: 0.0

Prompt line: Assay outcome for `Cn1cnc([N+](=O)[O-])c1S(=O)(=O)Oc1ccccc1` : what was it?
Response line: 0.0

Prompt line: Which outcome did this test record for the compound `Clc1nnc2c3ccccc3ccn12` ?
Response line: 0.0

Prompt line: Fill in: this test's call for `COc1ccc(NC(=O)Cn2c(=O)sc3c(-c4ccc(Cl)cc4)cc(-c4ccc(Cl)cc4)nc32)cc1` is ___
Response line: 0.0

###

System: MALME-3M melanoma
measurement_protocol: NCI-60 one-dose screen, 48 h
reported_conditions: 10 µM unless noted
About 83,000 compounds went through this panel and 20% of them were active in at least one assay; those are over-represented in the sample as a whole. Calls of active or inactive are those of the source. Rule for the calls: active = growth percent below 10; inactive = the rest.
Outcome (select one): active, inactive

Solved entries:
molecule	group_label
C=CCN(CC#N)CC=C	inactive
COc1cc(C2CC(c3ccccc3)=NN2C=O)ccc1Oc1nc2c(c(=O)n(C)c(=O)n2C)n1C (stereo unspecified)	inactive
N=C(N)c1ccc(-c2ccc(-c3cccs3)s2)cc1F	active
C=C(COC(C)=O)[C@H]1CC/C(C)=C/CC/C(C)=C/CC[C@@]2(C)O[C@H]2C1	inactive
CN(C)CCNC(=O)n1cc(-c2ccncc2)c(-c2cc(O)cc(Cl)c2)n1	active
CCOC(=O)N1C2CCC(C2)N1C(=O)OCC	inactive
Clc1cccc(CNc2c3ccccc3nc3ccccc23)c1	inactive
COc1ncnc2[nH]cc(CN3CCN(c4ccc(F)cc4)CC3)c12	inactive

Prompt line: Status in this test for `O=C(CCCCCCN1CC(=O)N2[C@@H](c3ccc(Cl)c(Cl)c3)c3[nH]c4ccccc4c3C[C@H]2C1=O)NO` ?
Response line: inactive

Prompt line: Assay result, entry `COc1ccccc1CNCCCN1C(=O)c2ccc3c4c(ccc(c24)C1=O)C(=O)N(CCCCNCCCN)C3=O` — outcome?
Response line: active

Prompt line: Recorded call for `Cn1c(-c2ccccc2)cc(=O)n1-c1ccccc1` ?
Response line: inactive

###

Tested on: HCT-116 colon
measurement_protocol: NCI-60 one-dose screen, 48 h
reported_conditions: 10 µM unless noted
Method: Growth inhibition of the HCT-116 human tumor cell line is measured as a screen for anti-cancer activity. Cells are grown in 96 well plates and exposed to the test compound for 48 hours. Compounds are tested at a single concentration, which is 10^-5 M for most compounds. The reported endpoint is percent growth (GI% or GIPRCNT), where numbers from 0 - 100% represent growth inhibition, and numbers from -100% - 0 represent cell death. For example, a value of 40 represents 60% growth inhibition. […]
The panel holds about 83,000 compounds, 20% with a hit somewhere; the sample as a whole holds those more often. Calls of active or inactive are those of the source. The calls were made as follows: active = growth percent below 10; inactive = the rest.
Log the outcome using a class from label 1 for active, label 0 for inactive

Solved cases below.
compound	group_label
CCn1c(=O)c(C(=O)NCCCO)c(O)c2ccccc21	label 0
CCOC(=O)Nc1ccc2nc(Sc3ccc(Cl)cc3)sc2c1	label 0
CC(SC(C)C(=O)N/N=C/c1cccc(Cl)c1)C(=O)N/N=C\c1cccc(Cl)c1 (stereo unspecified)	label 1
N#CCCn1cnc2c(N)ncnc21	label 0

Prompt line: What call does the record list for `O=C(Nc1ccncc1)C(=O)c1cn(S(=O)(=O)c2cccc(Cl)c2F)c2ccccc12` ?
Response line: label 0

Prompt line: Given `CCOC(=O)CCN(CCC(=O)OCC)c1ccccc1` , state the outcome it received in this test.
Response line: label 0

###

System: SK-MEL-2 melanoma
measurement_protocol: NCI-60 one-dose screen, 48 h (100 = growth as untreated, 0 = no growth, -100 = all killed)
reported_conditions: 10 µM unless noted
The panel holds about 83,000 compounds, 20% with a hit somewhere; the sample as a whole holds those more often.
I'd be grateful if you could share measured growth for these entries.
Give bare numbers, in %.

Below, each entry is followed by its recorded growth result.
compound	growth (%)
CC[C@]1(O)C[C@H]2CN(CCc3c([nH]c4ccccc34)C(C(=O)OC)(c3cc4c(cc3OC)N(C)[C@H]3[C@@](O)(C(=O)OC)[C@H](OC(C)=O)[C@]5(CC)[C@@H]6C[C@@H]6CN6CC[C@]43[C@@H]65)C2)C1 (some centres undefined)	45.5
Nc1c(C(=O)Nc2ccccc2)sc2nc3c(cc12)C(=O)CCC3	38.7
C[C@H](NC(=O)c1snnc1C1CC1)c1c(F)cccc1Cl	108

Moving on to the next compound.
Consider O=C(CSc1nnc(Cc2ccccc2Nc2c(Cl)cccc2Cl)n1-c1ccccc1)N1N=C(c2ccc3ccccc3c2)CC1c1ccc(Cl)cc1 (centres undefined) . Its measured growth is 103
